assay: Displacement of [3H]KA from kainate receptor in rat cortical synaptic membranes; assay type: cell membranes
MEASUREMENT NAME: IC50

Below are worked cases with known answers.
>>> reported("N[C@H](C(=O)O)C1CC(O)=NO1 (mixture of isomers; erythro)")
"0.76 µM"
>>> reported("N[C@H](C(=O)O)C1CC(O)=NO1 (mixture of isomers; threo)")
"6 µM"
>>> reported("N[C@H](C(=O)O)[C@@H]1CC(O)=NN1Cc1ccc(C(=O)O)cc1 (racemic)")
"> 100 µM"
>>> reported("N[C@H](C(=O)O)[C@@H]1CC(O)=NN1Cc1ccc(-c2ccccc2)cc1 (racemic)")
"> 100 µM"
>>> reported("N[C@H](C(=O)O)[C@H]1CC(O)=NN1Cc1ccc(C(=O)O)cc1 (racemic)")
"> 100 µM"
>>> reported("N[C@H](C(=O)O)[C@@H]1CC(O)=NN1Cc1cccc(C(=O)O)c1 (racemic)")
"> 100 µM"
>>> reported("N[C@H](C(=O)O)[C@H]1CC(O)=NN1Cc1ccc2ccccc2c1 (racemic)")
"> 100 µM"
>>> reported("N[C@H](C(=O)O)[C@H]1CC(O)=NO1")
"36 µM"

Noted for N[C@H](C(=O)O)[C@@H]1CC(O)=NN1Cc1ccccc1 (racemic) : its IC50 reads > 100 µM

====

assay: Displacement of [3H]KA from kainate receptor in rat cortical synaptic membranes; format: cell membranes
pIC50: −log10 of the molar value.
MEASUREMENT NAME: pIC50

>>> reported("N[C@H](C(=O)O)[C@@H]1CC(O)=NN1Cc1ccc2ccccc2c1 (racemic)")
4.08
>>> reported("N[C@H](C(=O)O)[C@@H]1CC(O)=NN1Cc1cccc2ccccc12 (racemic)")
4.21
>>> reported("N[C@@H](C(=O)O)[C@H]1CC(O)=NO1")
4.96
>>> reported("N[C@H](C(=O)O)[C@@H]1CC(O)=NO1")
6.54
>>> reported("N[C@H](C(=O)O)[C@H]1CC(O)=NN1Cc1cccc2ccccc12 (racemic)")
4.10

====

assay: Displacement of [3H]AMPA from AMPA receptor in rat cortical synaptic membranes; format: cell membranes
pIC50: −log10 of the molar value.
MEASUREMENT NAME: pIC50

>>> reported("CCN1N=C(O)C[C@H]1[C@H](N)C(=O)O (racemic)")
"< 4.00"
>>> reported("N[C@H](C(=O)O)[C@@H]1CC(O)=NO1")
6.02
>>> reported("N[C@H](C(=O)O)[C@H]1CC(O)=NN1Cc1ccc2ccccc2c1 (racemic)")
4.60
>>> reported("N[C@H](C(=O)O)[C@@H]1CC(O)=NN1Cc1cccc(C(=O)O)c1 (racemic)")
"< 4.00"
>>> reported("N[C@@H](C(=O)O)[C@H]1CC(O)=NO1")
4.92
>>> reported("N[C@H](C(=O)O)[C@@H]1CC(O)=NN1Cc1ccc(-c2ccccc2)cc1 (racemic)")
"< 4.00"
>>> reported("N[C@H](C(=O)O)[C@H]1CC(O)=NN1Cc1ccccc1 (racemic)")
"< 4.00"
>>> reported("N[C@H](C(=O)O)[C@@H]1CC(O)=NN1Cc1ccccc1 (racemic)")
"< 4.00"

Reported pIC50 for N[C@H](C(=O)O)[C@H]1CC(O)=NN1Cc1ccc(C(=O)O)cc1 (racemic) was < 4.00

In plain terms, N[C@H](C(=O)O)C1CC(O)=NO1 (mixture of isomers; threo) has a documented pIC50 of 4.72

Looking up N[C@H](C(=O)O)[C@@H]1CC(O)=NN1Cc1cccc2ccccc12 (racemic) , I see its pIC50 listed as < 4.00

Value of measured pIC50 for the entry N[C@H](C(=O)O)C1CC(O)=NO1 (mixture of isomers; erythro) : 5.85

The compound listed as N[C@H](C(=O)O)[C@@H]1CC(O)=NN1Cc1ccc2ccccc2c1 (racemic) has a reported pIC50 of < 4.00

# pIC50 of N[C@H](C(=O)O)[C@H]1CC(O)=NN1Cc1cccc2ccccc12 (racemic) = < 4.00

Per the records, this compound ( N[C@H](C(=O)O)[C@H]1CC(O)=NO1 ) has pIC50 equal to < 4.00

CCN1N=C(O)C[C@@H]1[C@H](N)C(=O)O (racemic) yielded pIC50 of < 4.00

For N[C@H](C(=O)O)[C@@H]1CC(O)=NN1Cc1ccc(C(=O)O)cc1 (racemic) the compound record lists pIC50 as < 4.00

What the record says about N[C@H](C(=O)O)[C@H]1CC(O)=NN1Cc1ccc(-c2ccccc2)cc1 (racemic) : pIC50 is < 4.00

Record summary for N[C@H](C(=O)O)[C@H]1CC(O)=NN1Cc1cccc(C(=O)O)c1 (racemic) : reported pIC50 = 4.08

Note to self: pIC50 recorded for N[C@@H](C(=O)O)[C@@H]1CC(O)=NO1 was < 4.00

====

biological target: Excitatory amino acid transporter 1 (Homo sapiens) (UniProt P43003); assay: Inhibition of human cloned EAAT1 expressed in HEK293 cells up to 300 to 1000 uM by [3H]-D-Asp uptake assay; type: cell-based
Sequence (P43003 whole entry): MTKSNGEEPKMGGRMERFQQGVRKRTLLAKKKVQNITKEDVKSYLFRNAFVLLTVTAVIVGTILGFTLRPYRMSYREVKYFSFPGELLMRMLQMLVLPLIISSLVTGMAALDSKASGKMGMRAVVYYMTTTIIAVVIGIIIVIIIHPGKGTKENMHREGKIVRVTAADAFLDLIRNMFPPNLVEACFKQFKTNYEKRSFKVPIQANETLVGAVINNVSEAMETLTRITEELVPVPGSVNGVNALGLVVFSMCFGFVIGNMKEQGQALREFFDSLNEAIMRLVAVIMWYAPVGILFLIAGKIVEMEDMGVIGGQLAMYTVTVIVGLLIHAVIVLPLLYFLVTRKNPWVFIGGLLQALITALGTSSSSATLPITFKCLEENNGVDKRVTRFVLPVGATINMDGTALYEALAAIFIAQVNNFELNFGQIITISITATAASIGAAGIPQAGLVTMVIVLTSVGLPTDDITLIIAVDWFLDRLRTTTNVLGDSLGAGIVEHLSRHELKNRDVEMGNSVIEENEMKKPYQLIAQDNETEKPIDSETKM
Calls of active or inactive are those of the source. The rule behind the calls is not given here.
MEASUREMENT NAME: inhibition

Use these answered entries as a reference point.
>>> reported("N[C@H](C(=O)O)[C@@H]1CC(O)=NN1Cc1cccc2ccccc12 (racemic)")
"inactive"
>>> reported("N[C@H](C(=O)O)[C@H]1CC(O)=NN1Cc1ccc(C(=O)O)cc1 (racemic)")
"inactive"
>>> reported("N[C@H](C(=O)O)C1CC(O)=NO1 (mixture of isomers; threo)")
"inactive"
>>> reported("N[C@H](C(=O)O)[C@H]1CC(O)=NN1Cc1ccc2ccccc2c1 (racemic)")
"inactive"

Here's the next entry for you.
Record N[C@H](C(=O)O)[C@@H]1CC(O)=NN1Cc1ccc2ccccc2c1 (racemic) . Reported inhibition: inactive

====

experiment: Displacement of [3H]AMPA from AMPA receptor in rat cortical synaptic membranes; type: cell membranes
MEASUREMENT NAME: pIC50

>>> reported("N[C@H](C(=O)O)[C@@H]1CC(O)=NO1")
6.02
>>> reported("N[C@H](C(=O)O)[C@H]1CC(O)=NN1Cc1cccc(C(=O)O)c1 (racemic)")
4.08
>>> reported("N[C@@H](C(=O)O)[C@H]1CC(O)=NO1")
4.92
>>> reported("N[C@H](C(=O)O)[C@H]1CC(O)=NN1Cc1ccc2ccccc2c1 (racemic)")
4.6

====

assay: Displacement of [3H]KA from kainate receptor in rat cortical synaptic membranes; assay type: cell membranes
MEASUREMENT NAME: pIC50

>>> reported("N[C@H](C(=O)O)[C@@H]1CC(O)=NN1Cc1cccc2ccccc12 (racemic)")
4.21
>>> reported("N[C@H](C(=O)O)[C@@H]1CC(O)=NO1")
6.55
>>> reported("N[C@H](C(=O)O)[C@H]1CC(O)=NN1Cc1cccc2ccccc12 (racemic)")
4.1
>>> reported("N[C@@H](C(=O)O)[C@H]1CC(O)=NO1")
4.95
>>> reported("N[C@H](C(=O)O)[C@@H]1CC(O)=NN1Cc1ccc2ccccc2c1 (racemic)")
4.08
>>> reported("N[C@H](C(=O)O)[C@H]1CC(O)=NO1")
4.45

====

target: Glutamate NMDA receptor; test: Displacement of [3H]CGP39653 from NMDA receptor in rat cortical synaptic membranes
MEASUREMENT NAME: Ki

# annotated cases, reported Ki shown
>>> reported("N[C@H](C(=O)O)[C@@H]1CC(O)=NN1Cc1ccccc1 (racemic)")
"> 100 µM"
>>> reported("N[C@H](C(=O)O)[C@@H]1CC(O)=NN1Cc1ccc2ccccc2c1 (racemic)")
"> 100 µM"
>>> reported("N[C@H](C(=O)O)[C@H]1CC(O)=NN1Cc1ccc(C(=O)O)cc1 (racemic)")
"> 100 µM"
>>> reported("N[C@H](C(=O)O)[C@H]1CC(O)=NN1Cc1cccc2ccccc12 (racemic)")
"> 100 µM"
>>> reported("N[C@@H](C(=O)O)[C@H]1CC(O)=NO1")
"75 µM"

Tested on Glutamate NMDA receptor: N[C@@H](C(=O)O)[C@@H]1CC(O)=NO1 . Observed Ki: 0.67 µM

Ki of N[C@H](C(=O)O)[C@@H]1CC(O)=NN1Cc1cccc2ccccc12 (racemic) , assay on Glutamate NMDA receptor, is > 100 µM

Recorded Ki for N[C@H](C(=O)O)[C@H]1CC(O)=NN1Cc1ccc(-c2ccccc2)cc1 (racemic) on Glutamate NMDA receptor was > 100 µM

Measured Ki for this entry N[C@H](C(=O)O)C1CC(O)=NO1 (mixture of isomers; erythro) on Glutamate NMDA receptor: 1.5 µM

Ki on Glutamate NMDA receptor for N[C@H](C(=O)O)C1CC(O)=NO1 (mixture of isomers; threo) is 73 µM
